Attribution: paper PMC8921294

- target_or_system: Human mitochondrial LonP1 (LonP1^WT) ATPase (Homo sapiens)
- Construct: hexa-histidine (N); made in house; host or cells: Rosetta 2 E. coli
- Sequence (P36776 68-959): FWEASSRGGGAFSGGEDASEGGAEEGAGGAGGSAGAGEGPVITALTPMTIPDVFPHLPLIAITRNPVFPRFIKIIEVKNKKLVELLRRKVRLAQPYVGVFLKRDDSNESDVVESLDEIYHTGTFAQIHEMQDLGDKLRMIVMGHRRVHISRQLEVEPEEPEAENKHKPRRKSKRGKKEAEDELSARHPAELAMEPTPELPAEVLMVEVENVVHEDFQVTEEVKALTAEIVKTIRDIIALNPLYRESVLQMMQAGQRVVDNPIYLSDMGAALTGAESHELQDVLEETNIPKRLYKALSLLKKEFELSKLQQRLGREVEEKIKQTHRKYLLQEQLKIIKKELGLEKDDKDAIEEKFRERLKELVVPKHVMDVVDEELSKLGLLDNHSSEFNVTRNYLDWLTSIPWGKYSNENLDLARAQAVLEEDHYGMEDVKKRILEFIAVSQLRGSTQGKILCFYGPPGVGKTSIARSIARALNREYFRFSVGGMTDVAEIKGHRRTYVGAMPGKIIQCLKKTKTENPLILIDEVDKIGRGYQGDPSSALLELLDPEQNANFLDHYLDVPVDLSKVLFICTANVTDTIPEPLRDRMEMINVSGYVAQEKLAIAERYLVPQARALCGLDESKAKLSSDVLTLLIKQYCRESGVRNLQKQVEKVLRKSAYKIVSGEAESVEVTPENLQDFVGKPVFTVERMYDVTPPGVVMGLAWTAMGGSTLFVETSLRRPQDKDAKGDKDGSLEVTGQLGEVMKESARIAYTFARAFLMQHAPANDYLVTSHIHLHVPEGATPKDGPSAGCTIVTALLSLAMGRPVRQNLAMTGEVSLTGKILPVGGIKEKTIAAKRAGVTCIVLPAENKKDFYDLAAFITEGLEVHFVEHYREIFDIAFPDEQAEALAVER
- procedure_details: Continuous NADH-coupled ATPase assay, wild-type LonP1
- Format: biochemical
- stated_conditions: continuous ATPase assay, ATP titrated
measured_metric: Modality (mechanism of LonP1 ATPase inhibition)

{"compound_structure_string": "COC(=O)[C@]12CCC(C)(C)C[C@H]1[C@H]1C(=O)C=C3[C@@]4(C)C=C(C#N)C(=O)C(C)(C)[C@@H]4CC[C@@]3(C)[C@]1(C)CC2", "result": "noncompetitive"}
{"compound_structure_string": "CC1(C)CC[C@]2(C(=O)O)CC[C@]3(C)[C@H](C(=O)C=C4[C@@]5(C)C=C(C#N)C(=O)C(C)(C)[C@@H]5CC[C@]43C)[C@@H]2C1", "result": "noncompetitive"}
{"compound_structure_string": "CC1(C)CC[C@]2(C(=O)n3ccnc3)CC[C@]3(C)[C@H](C(=O)C=C4[C@@]5(C)C=C(C#N)C(=O)C(C)(C)[C@@H]5CC[C@]43C)[C@@H]2C1", "result": "noncompetitive"}

====

- target_or_system: LonP1 C637V (Homo sapiens, UniProt P36776, C637V)
- Construct: hexa-histidine (N)
- procedure_details: Endpoint ATPase assay, LonP1 C637V
- stated_conditions: end-point ATPase assay, N = 1, read-out: CDDO IC50
measured_metric: pIC50
In textbook form, pIC50 equals minus log to base ten of the concentration in mol/L.

What value of measured pIC50 is listed for `CC1(C)CC[C@]2(C(=O)O)CC[C@]3(C)[C@H](C(=O)C=C4[C@@]5(C)C=C(C#N)C(=O)C(C)(C)[C@@H]5CC[C@]43C)[C@@H]2C1` ?
5.43
